- EXPERIMENT NOTES: The drug is tested on Eubacterium rectale strain: ATCC33656 for biotransformation. The drug concentrations were measured before and after a 12-h incubation by liquid-chromatography-coupled mass spectrometry (LC–MS)
- TEST PARAMETERS: agathobacter rectalis, 2 µM
METRIC: Bacterial Biotransformation

Examples with their reported Bacterial Biotransformation follow.
> print(dat)
                                   molecule                  observed
1  CCC(C)n1ncn(-c2ccc(N3CCN(c4ccc(OCC5COC(Cn6cncn6)(c6ccc(Cl)cc6Cl)O5)cc4)CC3)cc2)c1=O (stereo not drawn)  Compound NOT metabolized
2  CNCCC(Oc1ccc(C(F)(F)F)cc1)c1ccccc1 (stereo not drawn)      Compound metabolized
3       Cc1cc2c(s1)Nc1ccccc1N=C2N1CCN(C)CC1  Compound NOT metabolized
4  CC(C)OC(=O)C(C)(C)Oc1ccc(C(=O)c2ccc(Cl)cc2)cc1 [FENOFIBRATE]  Compound NOT metabolized
5  NC(=O)N1c2ccccc2CC(=O)c2ccccc21 [OXCARBAZEPINE]      Compound metabolized

Input line: I'd like to know its Bacterial Biotransformation. The molecule in question is CN(C)CCC=C1c2ccccc2C=Cc2ccccc21
Output line: Compound NOT metabolized

Input line: Which Bacterial Biotransformation value is on record for CN1CCc2c(c3ccccc3n2Cc2ccccc2)C1.CN1CCc2c(c3ccccc3n2Cc2ccccc2)C1.O=S(=O)(O)c1cccc2c(S(=O)(=O)O)cccc12 ?
Output line: Compound NOT metabolized

Input line: Fill blank: measured Bacterial Biotransformation of the molecule CCCCCNC(=N)N/N=C/c1c[nH]c2ccc(OC)cc12.O=C(O)/C=C\C(=O)O [TEGASEROD MALEATE] is ____.
Output line: Compound NOT metabolized

###

- EXPERIMENT NOTES: The drug is tested on Coprococcus comes strain: ATCC27758 for biotransformation. The drug concentrations were measured before and after a 12-h incubation by liquid-chromatography-coupled mass spectrometry (LC–MS)
- Assay type: ADME
- Set-up: dose 2 uM, timepoint 0 vs 12 hours
- TEST PARAMETERS: 2 µM
METRIC: Bacterial Biotransformation

// worked examples, Bacterial Biotransformation included
COMPOUND	Bacterial Biotransformation
CCCC(=O)Nc1ccc(OCC(O)CNC(C)C)c(C(C)=O)c1 (stereo not drawn)	Compound NOT metabolized
O=c1[nH]c2ccccc2n1CCCN1CCC(n2c(=O)[nH]c3cc(Cl)ccc32)CC1	Compound NOT metabolized
CCCCC(=O)O[C@]1(C(=O)CO)[C@@H](C)C[C@H]2[C@@H]3CCC4=CC(=O)C=C[C@]4(C)[C@@]3(F)[C@@H](O)C[C@@]21C [BETAMETHASONE VALERATE]	Compound metabolized
O=C1[C@H](CC[C@H](O)c2ccc(F)cc2)[C@@H](c2ccc(O)cc2)N1c1ccc(F)cc1	Compound NOT metabolized

Input line: Item CCS(=O)(=O)CCn1c([N+](=O)[O-])cnc1C has what recorded Bacterial Biotransformation?
Output line: Compound metabolized

Input line: What value of Bacterial Biotransformation has been recorded for this entry: CC(=O)CCCCn1c(=O)c2c(ncn2C)n(C)c1=O
Output line: Compound NOT metabolized

Input line: State the recorded Bacterial Biotransformation for this entry: COc1ccccc1OCCNCC(O)COc1cccc2[nH]c3ccccc3c12 (stereo not drawn)
Output line: Compound NOT metabolized

Input line: Item CC[C@@H](CO)NC(=O)[C@@H]1C=C2c3cccc4c3c(cn4C)C[C@H]2N(C)C1.O=C(O)/C=C\C(=O)O [METHYSERGIDE MALEATE] has what recorded Bacterial Biotransformation?
Output line: Compound metabolized

###

- TEST PARAMETERS: bacteroides fragilis, 12 h, 2 µM
- Description: The drug is tested on Bacteroides fragilis strain: 3397 (T10) for biotransformation. The drug concentrations were measured before and after a 12-h incubation by liquid-chromatography-coupled mass spectrometry (LC–MS)
METRIC: Bacterial Biotransformation

# count of solved cases: 5
MOLECULE	Bacterial Biotransformation
Cc1cn([C@H]2C[C@H](N=[N+]=[N-])[C@@H](CO)O2)c(=O)[nH]c1=O	Compound metabolized
CC(C)[C@H]1CC[C@H](C(=O)N[C@H](Cc2ccccc2)C(=O)O)CC1 [NATEGLINIDE]	Compound NOT metabolized
COC(=O)C1=C(C)NC(C)=C(C(=O)OC(C)C)C1c1cccc2nonc12 (stereo not drawn)	Compound NOT metabolized
COc1ccc2c(c1OC)C(=O)O[C@@H]2[C@H]1c2c(cc3c(c2OC)OCO3)CCN1C	Compound NOT metabolized
OCCN1CCN(CCCN2c3ccccc3Sc3ccc(C(F)(F)F)cc32)CC1	Compound metabolized

Input line: Can you look up the measured Bacterial Biotransformation of CC(C)(C)N.CCC[C@H](N[C@@H](C)C(=O)N1[C@H](C(=O)O)C[C@@H]2CCCC[C@@H]21)C(=O)OCC for me?
Output line: Compound NOT metabolized

Input line: Any idea what its Bacterial Biotransformation is? The molecule is CC(C)(Oc1ccc(CCNC(=O)c2ccc(Cl)cc2)cc1)C(=O)O [BEZAFIBRATE]
Output line: Compound metabolized

###

- EXPERIMENT NOTES: The drug is tested on Collinsella aerofaciens strain: ATCC25986 for biotransformation. The drug concentrations were measured before and after a 12-h incubation by liquid-chromatography-coupled mass spectrometry (LC–MS)
- TEST PARAMETERS: 2 µM
METRIC: Bacterial Biotransformation

> print(dat)
                                   compound                  observed
1  O=C(CCCN1CCC2(CC1)C(=O)NCN2c1ccccc1)c1ccc(F)cc1 [SPIPERONE]  Compound NOT metabolized
2  CCOC(=O)[C@H](CCc1ccccc1)N[C@@H](C)C(=O)N1CCC[C@H]1C(=O)O.O=C(O)/C=C\C(=O)O [ENALAPRIL MALEATE]  Compound NOT metabolized
3  CN1CCN(C(=O)O[C@H]2c3nccnc3C(=O)N2c2ccc(Cl)cn2)CC1 [ESZOPICLONE]      Compound metabolized
4  C#C[C@]1(OC(C)=O)CC[C@H]2[C@@H]3CCC4=CC(=O)CC[C@@H]4[C@H]3CC[C@@]21C [NORETHINDRONE ACETATE]      Compound metabolized
5  CN1CCN(C2=Nc3cc(Cl)ccc3Nc3ccccc32)CC1 [CLOZAPINE]  Compound NOT metabolized

Input line: Using the record for CC(=O)O[C@]1(C(C)=O)CC[C@H]2[C@@H]3C=C(C)C4=CC(=O)CC[C@]4(C)[C@H]3CC[C@@]21C [MEGESTROL ACETATE] , report its Bacterial Biotransformation.
Output line: Compound metabolized

Input line: Reported Bacterial Biotransformation, compound CCN(CC)C(=O)C1(c2ccccc2)CC1CN (stereo not drawn) : ____
Output line: Compound NOT metabolized

Input line: Can you share its Bacterial Biotransformation? I mean this compound: Nc1nc(N)nc(-c2cc(Cl)ccc2Cl)n1.O=C(O)/C=C\C(=O)O [IRSOGLADINE MALEATE]
Output line: Compound NOT metabolized

###

- EXPERIMENT NOTES: The drug is tested on Bacteroides pectinophilus strain: ATCC43243 for biotransformation. The drug concentrations were measured before and after a 12-h incubation by liquid-chromatography-coupled mass spectrometry (LC–MS)
- TEST PARAMETERS: 2 µM
METRIC: Bacterial Biotransformation

COMPOUND	Bacterial Biotransformation
COc1ccc(Cc2nccc3cc(OC)c(OC)cc23)cc1OC [PAPAVERINE]	Compound NOT metabolized
COc1ccnc(C[S+]([O-])c2nc3ccc(OC(F)F)cc3[nH]2)c1OC (configuration not stated) [PANTOPRAZOLE]	Compound metabolized
COC(=O)[C@H](c1ccccc1Cl)N1CCc2sccc2C1.O=S(=O)(O)O [CLOPIDOGREL BISULFATE]	Compound NOT metabolized
CN1CCN(C2=Nc3ccccc3Oc3ccc(Cl)cc32)CC1.O=C(O)CCC(=O)O [LOXAPINE SUCCINATE]	Compound NOT metabolized
C#C[C@]1(O)CC[C@H]2[C@@H]3CCC4=Cc5oncc5C[C@]4(C)[C@H]3CC[C@@]21C [DANAZOL]	Compound metabolized

Input line: What value of Bacterial Biotransformation has been reported for the following compound? Cc1ccc(/C(=C\CN2CCCC2)c2ccccn2)cc1 [TRIPROLIDINE]
Output line: Compound NOT metabolized

Input line: Need Bacterial Biotransformation, item CN1CCN(CC/C=C2/c3ccccc3Sc3ccc(S(=O)(=O)N(C)C)cc32)CC1 [THIOTHIXENE]
Output line: Compound NOT metabolized

Input line: For the compound shown here, Nc1nc(NC2CC2)c2ncn([C@H]3C=C[C@@H](CO)C3)c2n1.Nc1nc(NC2CC2)c2ncn([C@H]3C=C[C@@H](CO)C3)c2n1.O=S(=O)(O)O [ABACAVIR SULFATE] , give the reported Bacterial Biotransformation.
Output line: Compound NOT metabolized

Input line: I'd like to know its Bacterial Biotransformation. The compound in question is CCCCC(=O)O[C@]1(C(=O)CO)[C@@H](C)C[C@H]2[C@@H]3CCC4=CC(=O)C=C[C@]4(C)[C@@]3(F)[C@@H](O)C[C@@]21C [BETAMETHASONE VALERATE]
Output line: Compound NOT metabolized

Input line: Tell me the measured Bacterial Biotransformation of CCN1CCCC1CNC(=O)c1cc(S(N)(=O)=O)ccc1OC (configuration not stated) [SULPIRIDE] , please.
Output line: Compound NOT metabolized

Input line: Using the record for COc1cc2nc(N(C)CCCNC(=O)C3CCCO3)nc(N)c2cc1OC (configuration not stated) [ALFUZOSIN] , report its Bacterial Biotransformation.
Output line: Compound NOT metabolized

Input line: Can you look up the measured Bacterial Biotransformation of COc1ccc2[nH]c([S+]([O-])Cc3ncc(C)c(OC)c3C)nc2c1 (configuration not stated) [OMEPRAZOLE] for me?
Output line: Compound metabolized

Input line: Reported Bacterial Biotransformation, compound COC(=O)C1=C(C)NC(C)=C(C(=O)OC(C)C)C1c1cccc2nonc12 (configuration not stated) [ISRADIPINE] : ____
Output line: Compound NOT metabolized

Input line: Reported Bacterial Biotransformation for CN(C/C=C/C#CC(C)(C)C)Cc1cccc2ccccc12 [TERBINAFINE] : what is it?
Output line: Compound NOT metabolized

Input line: Field request: Bacterial Biotransformation | item: O=C(O)CCc1nc(-c2ccccc2)c(-c2ccccc2)o1 [OXAPROZIN]
Output line: Compound NOT metabolized

Input line: Given the entry CCN(CC)C(=O)/C(C#N)=C/c1cc(O)c(O)c([N+](=O)[O-])c1 [ENTACAPONE] , report its measured Bacterial Biotransformation.
Output line: Compound metabolized

Input line: # query: Bacterial Biotransformation of entry CCC(COC(=O)c1cc(OC)c(OC)c(OC)c1)(c1ccccc1)N(C)C.O=C(O)/C=C\C(=O)O (configuration not stated)
Output line: Compound metabolized
